The values you see were collected from ChEMBL document CHEMBL1201862.

- System: CCRF-CEM
- Run Description: NCI tumour cell line growth inhibition, 48 h
Active and inactive are the calls of the source. Rule as the data show it: active = GI50 up to about 1.1 µM and inactive = higher.
Please answer using one outcome listed in TRUE for active, FALSE for inactive

Enquiry: Field: outcome | Entry: [O-][S+]1SC(=S)C2C=CC=CC21 (centres undefined)
Return: FALSE

Enquiry: Field: outcome | Entry: O=C1C=C(N2CCCC2)C(=O)c2c(O)ccc(O)c21
Return: FALSE

Enquiry: Field: outcome | Entry: CCOC(=O)/C=C/n1c2ccccc2c(=O)c2ccccc21
Return: FALSE

Enquiry: Field: outcome | Entry: CC(C)c1cccc(C(C)C)c1NC(=O)/C(Cc1nc2ccc(Cl)cc2nc1O)=N\NC(=O)C[N+](C)(C)C
Return: FALSE

Enquiry: Field: outcome | Entry: CN(C)CCCc1c[nH]c2ccccc12
Return: FALSE

Enquiry: Field: outcome | Entry: Cc1ccc(-c2nc3cc([N+](=O)[O-])ccc3[nH]2)cc1
Return: FALSE

Enquiry: Field: outcome | Entry: CN1N=CSC12C(=O)N(c1ccccc1)C(=O)N2c1ccccc1 (centres undefined)
Return: FALSE

Enquiry: Field: outcome | Entry: Cc1c(/C=N/NC(=S)Nc2ccc([N+](=O)[O-])cc2)c(=O)n(-c2ccccc2)n1C
Return: FALSE

Enquiry: Field: outcome | Entry: COc1cc(C2c3cc4c(cc3OC(NN)C2C)OCO4)cc(OC)c1OC (centres undefined)
Return: TRUE

* * *

Give GI50 for every item shown.
- System: HL-60
- Run Description: NCI tumour cell line growth inhibition, 48 h
The source made the active and inactive calls. Rule as the data show it: active = GI50 up to about 1.1 µM and inactive = higher.

Enquiry: Request body: readout GI50, system HL-60, query O=C1NC2C(O)CCCCC2C12CCCCC2 (stereo unspecified) . Return the value.
Return: > 100 µM (inactive)

Enquiry: Request body: readout GI50, system HL-60, query Oc1ccc2c3c1OC1c4[nH]c5c(c4CC4(O)C(C2)N(CC2CC2)CC[C@]314)CC1(O)C2Cc3ccc(O)c4c3[C@@]1(CCN2CC1CC1)C5O4 (stereo partly specified) . Return the value.
Return: 21.9 µM (inactive)

Enquiry: Request body: readout GI50, system HL-60, query COc1ccc(/C=C(/C#N)C(N)=O)cc1OC . Return the value.
Return: > 100 µM (inactive)

Enquiry: Request body: readout GI50, system HL-60, query CC1(C)C2CCC(CN)(C2)C1O (stereo unspecified) . Return the value.
Return: > 100 µM (inactive)

Enquiry: Request body: readout GI50, system HL-60, query COc1ccc(/N=C(C)/C(C)=N/c2ccc(OC)cc2)cc1 . Return the value.
Return: 52.2 µM (inactive)

Enquiry: Request body: readout GI50, system HL-60, query O=c1/c(=C/c2ccccc2[N+](=O)[O-])sc2nnc(-c3ccco3)n12 . Return the value.
Return: 24.8 µM (inactive)

Enquiry: Request body: readout GI50, system HL-60, query C[C@]12CCC(=O)C=C1CC[C@@H]1C2CC[C@]2(C)Nc3c(cnn3-c3ccccc3)CC12 (stereo partly specified) . Return the value.
Return: > 100 µM (inactive)

Enquiry: Request body: readout GI50, system HL-60, query CCC(CS(=O)(=O)O)[N+](=O)[O-] (stereo unspecified) . Return the value.
Return: > 100 µM (inactive)

Enquiry: Request body: readout GI50, system HL-60, query CC12CCc3ccccc3C1=Nc1ccccc12 (stereo unspecified) . Return the value.
Return: 28.8 µM (inactive)

Enquiry: Request body: readout GI50, system HL-60, query COc1ccc(C2=NNC(=O)c3ccccc3N2c2nc(-c3cccs3)nc3ccc(Br)cc23)cc1 . Return the value.
Return: > 100 µM (inactive)

Enquiry: Request body: readout GI50, system HL-60, query Cn1c2ccc([N+](=O)[O-])cc2c(=O)n1Cc1ccccc1F . Return the value.
Return: 64.4 µM (inactive)

* * *

- Tested on: OVCAR-8
- Run Description: NCI tumour cell line growth inhibition, 48 h
Calls of active or inactive are those of the source. No stated cut-off is given here; in the data, active = GI50 up to about 1.1 µM and inactive = higher.
Please answer using one outcome listed in active, inactive

Enquiry: Field: outcome | Entry: C=CCCCCn1c2ccccc2c2c(C)c3c[n+](C)ccc3c(C)c21
Return: active

Enquiry: Field: outcome | Entry: CC1(C)SCc2nc3ncccc3n21
Return: inactive

Enquiry: Field: outcome | Entry: O=c1cc(-c2ccccc2)[nH]c2ccc(N3CCOCC3)cc12
Return: active

Enquiry: Field: outcome | Entry: O=C1/C(=C/c2ccccc2)Oc2cc(O)ccc21
Return: inactive

Enquiry: Field: outcome | Entry: COC(=O)c1ccc(C)cc1C1CN=NC12Cc1cccc(C)c1C2=O (stereo unspecified)
Return: inactive

Enquiry: Field: outcome | Entry: Cc1c2c(c(O)c3c(O)cccc13)C(=O)C1(O)C(=O)C(C(=O)NCNc3ccc(C(N)=O)cn3)=C(O)C(N(C)C)C1C2 (stereo unspecified)
Return: inactive

* * *

- System: TK-10
- Run Description: NCI tumour cell line growth inhibition, 48 h
Calls of active or inactive are those of the source. No stated cut-off is given here; in the data, active = GI50 up to about 1.1 µM and inactive = higher.
Measured Property: GI50

Enquiry: Return reported GI50; argument: C=CCc1cc2cccc(OC)c2oc1=O
Return: > 100 µM (inactive)

Enquiry: Return reported GI50; argument: N#Cc1c(N)nc2[nH]nc(N)c2c1-c1ccc(Cl)cc1
Return: 2.1 µM (inactive)

Enquiry: Return reported GI50; argument: CC(=O)C1=C(C)O[C@@H]2O[C@H](COCc3ccccc3)[C@@H](OCc3ccccc3)[C@H](O)[C@@H]2S1
Return: 19.1 µM (inactive)

Enquiry: Return reported GI50; argument: CCCCC/N=C/c1c(O)c(O)c(C(C)C)c2cc(C)c(-c3c(C)cc4c(C(C)C)c(O)c(O)c(/C=N/CCCCC)c4c3O)c(O)c12
Return: 15 µM (inactive)

Enquiry: Return reported GI50; argument: CC(=O)Nc1ccc(N2C(=O)/C(=C\c3cccc(Oc4ccccc4)c3)SC2c2ccccc2)cc1 (stereo not given)
Return: 34.4 µM (inactive)

Enquiry: Return reported GI50; argument: COC1CC(OC(=O)c2ccccc2)C(OC(=O)c2ccccc2)C(C)O1 (stereo not given)
Return: > 100 µM (inactive)

Enquiry: Return reported GI50; argument: C=CCCN1CCc2c([nH]c3ccccc23)C1C(=O)O (stereo not given)
Return: > 100 µM (inactive)

Enquiry: Return reported GI50; argument: COC(=O)C(=Cc1cc(OC)ccc1OC)C(=O)OC
Return: 36.3 µM (inactive)

Enquiry: Return reported GI50; argument: O=C(O)Cc1ccc(-n2nnc3c(=O)[nH][nH]c(=O)c32)cc1
Return: > 100 µM (inactive)

Enquiry: Return reported GI50; argument: C[C@]12OC(=O)[C@]3(O)CC[C@H]4[C@@H](C[C@@H](O)[C@@]5(Cl)CC=CC(=O)[C@]45C)[C@]45OCC6C(=O)O[C@@H]1C[C@@]6(C)[C@H](C4=O)[C@@]32O5 (stereo not given in full)
Return: 1.6 µM (inactive)

Enquiry: Return reported GI50; argument: COc1ccc(/C(=N\NC(=S)NN)C(c2ccc(OC)cc2)C2C(=O)Oc3ccccc32)cc1 (stereo not given)
Return: > 10 µM (inactive)

Enquiry: Return reported GI50; argument: COc1nc(C(=O)O)c(Cl)c(OC)c1Cl
Return: > 100 µM (inactive)

Enquiry: Return reported GI50; argument: Cc1cc(C(O)CNC(C)CCn2cnc3c2c(=O)n(C)c(=O)n3C)ccc1O (stereo not given)
Return: > 100 µM (inactive)

Enquiry: Return reported GI50; argument: c1ccc2c(C3NCCc4nc[nH]c43)cccc2c1 (stereo not given)
Return: > 100 µM (inactive)

Enquiry: Return reported GI50; argument: O=c1c2cc([N+](=O)[O-])ccc2[nH]n1Cc1ccccc1Cl
Return: 18.2 µM (inactive)

Enquiry: Return reported GI50; argument: C[C@]12CCC(=O)C=C1CC[C@@H]1C2CC[C@]2(C)Nc3c(cnn3-c3ccccc3)CC12 (stereo not given in full)
Return: > 100 µM (inactive)

Enquiry: Return reported GI50; argument: [O-][S+]1SC(=S)C2C=CC=CC21 (stereo not given)
Return: > 100 µM (inactive)

Enquiry: Return reported GI50; argument: Nc1ncnc(NC2C=C(CO)C(O)C2O)c1[N+](=O)[O-] (stereo not given)
Return: > 100 µM (inactive)

Enquiry: Return reported GI50; argument: Clc1cc(OCC23CC4CC(CC(C4)C2)C3)nc(OCC23CC4CC(CC(C4)C2)C3)n1
Return: > 100 µM (inactive)

Enquiry: Return reported GI50; argument: Brc1cccc(/N=N/N2CCCC2)c1
Return: > 100 µM (inactive)

* * *

- Tested on: OVCAR-4
- Run Description: NCI tumour cell line growth inhibition, 48 h
Active and inactive are the calls of the source. Cut-off read from the data, not from the text of the source: active = GI50 up to about 1.1 µM and inactive = higher.
Give GI50 for every item shown.

Enquiry: Return reported GI50; argument: CC12CCC(=O)N1c1cc([N+](=O)[O-])ccc1N2 (stereo not given)
Return: > 100 µM (inactive)

Enquiry: Return reported GI50; argument: COc1cc(/C=C/c2ccc(Br)cc2)cc(OC)c1OC
Return: 21.3 µM (inactive)

Enquiry: Return reported GI50; argument: CCN(CC)CCNc1ccc2nnn3c4ccc(O)cc4c(=O)c1c23
Return: 2.64 µM (inactive)

Enquiry: Return reported GI50; argument: COC(=O)c1ccccc1C1CN=NC12Cc1c(C)ccc(C)c1C2=O (stereo not given)
Return: > 100 µM (inactive)

Enquiry: Return reported GI50; argument: Cc1ccc(/C=C/C(=O)c2c([O-])on[n+]2-c2ccccc2)cc1
Return: 3.1 µM (inactive)

Enquiry: Return reported GI50; argument: COc1nc(C(=O)O)c(Cl)c(OC)c1Cl
Return: > 100 µM (inactive)

Enquiry: Return reported GI50; argument: O=[N+]([O-])c1ccc(N2N=C(c3ccc(NCc4nc5ccccc5[nH]4)cc3)CC2c2ccco2)cc1 (stereo not given)
Return: 20.2 µM (inactive)

Enquiry: Return reported GI50; argument: O=C(OC1CC(n2cc(F)c(=O)[nH]c2=O)OC1CSC(=O)c1ccccc1)c1ccccc1 (stereo not given)
Return: 16.6 µM (inactive)

Enquiry: Return reported GI50; argument: CC[C@H](O)[C@H](C)C=C1SCCCS1
Return: > 100 µM (inactive)

Enquiry: Return reported GI50; argument: Clc1ccc(C2NN=C3c4ccccc4OCC32)cc1 (stereo not given)
Return: 13.4 µM (inactive)

Enquiry: Return reported GI50; argument: CCOC(=O)c1cc(Br)c(-c2cc(C)no2)[nH]1
Return: 23.3 µM (inactive)

Enquiry: Return reported GI50; argument: Cc1ccc2c(c1)NC(=O)C(N=[N+]=[N-])(c1ccccc1)C2=O (stereo not given)
Return: 44.2 µM (inactive)

Enquiry: Return reported GI50; argument: CCOC(=O)Cc1nc2nn(Cc3ccccc3)cc2c(=O)[nH]1
Return: > 100 µM (inactive)

Enquiry: Return reported GI50; argument: O=C1N=C(S)NNC12c1ccccc1-c1ccccc12
Return: > 10 µM (inactive)

Enquiry: Return reported GI50; argument: CC1=C(C#N)C(=C(C#N)C#N)OC1(C)Cc1ccccc1 (stereo not given)
Return: 21.9 µM (inactive)

Enquiry: Return reported GI50; argument: COc1ccc(OC)c2c(C(=O)O)c(C(C)c3ccccc3)ccc12 (stereo not given)
Return: > 100 µM (inactive)

Enquiry: Return reported GI50; argument: N#Cc1ccc(Oc2nc3ccccc3nc2C(=O)O)cc1
Return: > 100 µM (inactive)

Enquiry: Return reported GI50; argument: CCOP(=O)(OCC)C(N)Cc1ccc(OC)c(OC)c1 (stereo not given)
Return: > 100 µM (inactive)

Enquiry: Return reported GI50; argument: O=C1/C(=C\c2ccc([N+](=O)[O-])o2)SC2NC(COc3ccc(Cl)cc3)=NN12 (stereo not given)
Return: 1.87 µM (inactive)

Enquiry: Return reported GI50; argument: Cc1cc(C(=O)NCCN(C)C)c2nc3ccccc3cc2c1
Return: 3.02 µM (inactive)

Enquiry: Return reported GI50; argument: Nc1nc(CCC(=O)Nc2cccc(C(F)(F)F)c2)cc(-c2ccc3ccccc3c2)n1
Return: > 100 µM (inactive)

Enquiry: Return reported GI50; argument: CCOc1ccc(NC(=O)CC2C(=O)Nc3ccccc3S2(=O)=O)cc1 (stereo not given)
Return: > 100 µM (inactive)

Enquiry: Return reported GI50; argument: Cc1cc(C)c(O)c(CN2CCN(C(C)C)CCN(C(C)C)CC2)c1
Return: 46.6 µM (inactive)

Enquiry: Return reported GI50; argument: C/C(=N/NC(=O)C[n+]1ccccc1)C(CN(CC(C)C)CC(C)C)C(=O)Nc1ccc(C)cc1C (stereo not given)
Return: > 100 µM (inactive)

Enquiry: Return reported GI50; argument: CCc1nnc(S)n1/N=C/c1ccc(-c2ccc([N+](=O)[O-])cc2)o1
Return: > 100 µM (inactive)

Enquiry: Return reported GI50; argument: CCOC(OCC)C(CC)[Se]c1ccccc1 (stereo not given)
Return: 13.3 µM (inactive)

Enquiry: Return reported GI50; argument: O=C(O)C[C@@H]1[C@@H](O)[C@@H](O)CN2C(=O)c3ccccc3[C@H]12
Return: > 100 µM (inactive)

Enquiry: Return reported GI50; argument: COc1ccc(/N=C(C)/C(C)=N/c2ccc(OC)cc2)cc1
Return: 17.7 µM (inactive)

Enquiry: Return reported GI50; argument: COc1cc2c(c(OC)c1OC)C(=O)c1c(O)cc(C)c(OC)c1C2=O
Return: > 100 µM (inactive)

Enquiry: Return reported GI50; argument: C[C@]12CCC(=O)C=C1CC[C@@H]1C2CC[C@]2(C)Nc3c(cnn3-c3ccccc3)CC12 (stereo not given in full)
Return: > 100 µM (inactive)
